# testSystem: Tubulin
# testDescription: Inhibition of tubulin polymerization (unknown origin) incubated for 15 mins followed by GTP addition and measured for 20 mins by spectrophotometry
pIC50: −log10 of the molar value.
reportedMetric: pIC50

Here is how some molecules turned out for pIC50.
smilesEntry	experimentalResult
COc1cc(C(=O)c2cn(-c3ccc(C)cc3)cc2-c2ccccc2[N+](=O)[O-])cc(OC)c1OC	6.21
COc1cc(C(=O)c2cn(-c3ccc(N)cc3)cc2-c2ccccc2[N+](=O)[O-])cc(OC)c1OC	6.28
COc1cccc(-n2cc(C(=O)c3cc(OC)c(OC)c(OC)c3)c(-c3ccccc3)c2)c1	5.80
COc1cc(C(=O)c2cn(-c3cccc(N)c3)cc2-c2ccc([N+](=O)[O-])cc2)cc(OC)c1OC	6.11
COc1cc(C(=O)c2cn(-c3cccc(C)c3)cc2-c2ccccc2Cl)cc(OC)c1OC	6.15

A. COc1cc(C(=O)c2cn(-c3ccc(Cl)cc3)cc2-c2ccccc2)cc(OC)c1OC
B. COc1cc(C(=O)c2cn(-c3ccccc3)cc2-c2ccccc2C)cc(OC)c1OC
Which entry shows the lesser value of pIC50 here, A or B ? Selection: enter the item's label.
A
(A: 5.77, B: 6.10)
